Provenance of the data: the supplement of paper PMC6555819

- System: PPARg homodimer (NR concentration 180 nM)
- assay_remarks: PBM binding z-score (relative to random genomic background probes); higher = stronger binding; sequences stand for … in GC…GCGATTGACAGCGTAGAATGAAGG
# if value of PBM binding z-score reaches 0.9, tag Yes; if it stays below, tag No

Solved cases (3 shown):
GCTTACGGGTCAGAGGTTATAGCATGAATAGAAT | Yes
GCTGGTAGGTCAGGTTGGTCAGCTAACGGGTACG | Yes
GCGACTGGAGCAAAGCAGGTTACCATAAGGTTGG | No

Exercise: # bool: PBM binding z-score of `TCGAGAAGGTTAGGGGCATTCAGAATGGCGTCGA` >= 0.9
Solution: No

Exercise: Reported PBM binding z-score reaches at least 0.9 for `CGTCCAACGTCAATGCTAGGTCAGTGAAAGCATT` ?
Solution: No

Exercise: Tell me whether PBM binding z-score is at least 0.9 here: `CGTCCAAGGTCAAAGGACAGTGAAGAGATGACGG`
Solution: Yes

Exercise: Determine whether this sequence has PBM binding z-score no lower than 0.9: `CAGCGTAGGTCAGGGCCAGTATAGGAGGAACGTT`
Solution: No

Exercise: Kindly determine if PBM binding z-score recorded for `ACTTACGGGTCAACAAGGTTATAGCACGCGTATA` is above or exactly 0.9.
Solution: Yes

Exercise: Given `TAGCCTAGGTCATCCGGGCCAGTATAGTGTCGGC` , state whether its PBM binding z-score is at least 0.9.
Solution: Yes

Exercise: Could you please find out whether `CTCGCAAGGTCGTGCTCAGGTGAGTATACCAAAC` has PBM binding z-score that meets 0.9 or exceeds it?
Solution: No

Exercise: Please tell me: is the sequence `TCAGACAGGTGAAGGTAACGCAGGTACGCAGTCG` at or over 0.9 in terms of PBM binding z-score?
Solution: No

----------
The following sequences are shown together with reported PBM binding z-score values.
- Test system: RXRa DBDmut IVT, anti-RXR (DBD mutation: RXRa K156A/R161A, NR concentration 90 nM)
- assay_remarks: PBM binding z-score (relative to random genomic background probes); higher = stronger binding; sequences stand for … in GC…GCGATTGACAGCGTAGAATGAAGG
# output: bare number, no unit

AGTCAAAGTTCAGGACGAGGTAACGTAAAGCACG | 2.83
CCTACTGGGCCAAGGCCATTGATCAGTCAAAGCA | -1.15
GCTTGTACATCAAGGTTAAGAAAGACTAAGCTAA | -0.122
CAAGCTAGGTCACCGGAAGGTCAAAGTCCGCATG | 1.93
GGAACGAGGGCAAAATTGATAGCATCTGTCGACG | 2.03
CAAACTAGGTCAGGAAAGGTCAAAGTCGAATGAC | 1.51
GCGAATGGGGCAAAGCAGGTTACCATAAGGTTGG | -0.201
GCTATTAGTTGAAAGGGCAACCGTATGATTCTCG | 1.01
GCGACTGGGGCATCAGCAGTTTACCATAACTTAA | 0.507
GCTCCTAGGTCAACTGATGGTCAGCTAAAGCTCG | 2.02

Summary for this sequence, `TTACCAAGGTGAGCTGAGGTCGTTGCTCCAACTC` : PBM binding z-score is 0.505

Noted for `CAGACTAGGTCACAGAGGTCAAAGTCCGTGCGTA` : its PBM binding z-score reads 3.41
